- Tested on: Vero E6 infected with SARS-CoV-2
- Assay summary: morphology score (similarity to uninfected cells); higher = more like uninfected cells
- Condition set: 24 h
Parameter morphology score: see the listing below.
Recorded metric: morphology score

INSERT INTO assay_data (molecule, value_reported) VALUES
  ('NC1(Cc2ccc(Cl)cc2)CCN(c2ncnc3[nH]ccc23)CC1 (0.833333 µM)', 0.535),
  ('CC(C)C[C@H](NC(=O)CNC(=O)c1cc(Cl)ccc1Cl)B1OC(=O)C(CC(=O)O)(CC(=O)O)O1 (0.833333 µM)', -0.0464),
  ('Cc1ccnc2c1NC(=O)c1cccnc1N2C1CC1 [nevirapine] (10 µM)', 0.173),
  ('COc1ccc(Cl)cc1C(=O)NCCc1ccc(C(=O)O)cc1 [meglitinide] (10 µM)', 0.13),
  ('O=c1cc[nH]c(=O)[nH]1 [uracil] (10 µM)', -0.002),
  ('O=c1cc(N2CCOCC2)oc2c1ccc1ccccc12 (10 µM)', 0.258),
  ('CN1CCCN(C(c2ccccc2)c2ccc(Cl)cc2)CC1 (configuration not stated) [homochlorcyclizine] (10 µM)', 0.29),
  ('c1ccc(C2CC2)c(OCC2=NCCN2)c1 [cirazoline] (10 µM)', 0.0206),
  ('Cn1cc(C2=C(c3cn(CCCSC(=N)N)c4ccccc34)C(=O)NC2=O)c2ccccc21 [bisindolylmaleimide-IX] (0.833333 µM)', 0.0892),
  ('COc1ccccc1N1CCN(CCCCNC(=O)c2ccc3ccccc3c2)CC1 (10 µM)', -0.00528),
  ('CC(C)(C)C[C@@H]1N[C@@H](C(=O)N[C@H]2CC[C@H](O)CC2)[C@H](c2cccc(Cl)c2F)[C@]12C(=O)Nc1cc(Cl)ccc12 (10 µM)', -0.042),
  ('CNC(=O)c1cc(Oc2ccc(NC(=O)Nc3ccc(Cl)c(C(F)(F)F)c3)c(F)c2)ccn1 [regorafenib] (0.833333 µM)', 0.0372),
  ('CCCC(=O)Nc1ccc(OCC(O)CNC(C)C)c(C(C)=O)c1 (configuration not stated) [acebutolol] (10 µM)', -0.0282),
  ('Oc1ccc2c3c1O[C@H]1c4oc5ccccc5c4C[C@@]4(O)[C@@H](C2)N(CC2CC2)CC[C@]314 [naltriben] (10 µM)', -0.128),
  ('NC(=O)CN1CC(c2ccccc2)CC1=O (configuration not stated) [phenylpiracetam] (10 µM)', 0.175),
  ('Nc1ccc(S(=O)(=O)NC(=O)c2ccccc2)cc1 [sulfabenzamide] (10 µM)', 0.0893),
  ('CN1C(=O)N[C@H](Cc2c[nH]c3c(Cl)cccc23)C1=O [necrostatin-2] (10 µM)', 0.131);

###

- Tested on: Vero E6 infected with SARS-CoV-2
- Assay summary: morphology score (similarity to uninfected cells); higher = more like uninfected cells
- Condition set: 24 h
MET means recorded morphology score is 0.2 or above; NOT MET means it is below 0.2.

INSERT INTO assay_data (compound, target_of_assay, assigned_class) VALUES
  ('CC(C)C(N)=O [isobutyramide] (10 µM)', 'Vero E6 infected with SARS-CoV-2', 'NOT MET'),
  ('COC(=O)C1=C(C)NC(C)=C(C(=O)OC(C)C)[C@@H]1c1cccc2nonc12 [isradipine] (10 µM)', 'Vero E6 infected with SARS-CoV-2', 'NOT MET'),
  ('CN1CCC(NC(=O)c2cc(-c3c(O)cc(O)cc3Oc3ccc([N+](=O)[O-])cc3)on2)CC1 (0.833333 µM)', 'Vero E6 infected with SARS-CoV-2', 'MET'),
  ('O=C(Nc1cccnc1)N1CCC(Cc2cccc(Oc3ccc(C(F)(F)F)cn3)c2)CC1 (0.833333 µM)', 'Vero E6 infected with SARS-CoV-2', 'NOT MET'),
  ('CCOC(=O)N[C@@H]1CC[C@@H]2[C@@H](C1)C[C@H]1C(=O)O[C@H](C)[C@H]1[C@H]2/C=C/c1ccc(-c2cccc(F)c2)cn1 [vorapaxar] (10 µM)', 'Vero E6 infected with SARS-CoV-2', 'MET'),
  ('C[C@@H](Nc1cc(F)cc(F)c1)c1cc(C(=O)N(C)C)cc2c(=O)cc(N3CCOCC3)oc12 (10 µM)', 'Vero E6 infected with SARS-CoV-2', 'NOT MET'),
  ('NNC(=O)c1ccncc1 [isoniazid] (10 µM)', 'Vero E6 infected with SARS-CoV-2', 'NOT MET');

###

- System: Vero E6 infected with SARS-CoV-2
- Assay summary: inhibition of SARS-CoV-2 cytopathic effect; higher = more antiviral protection, active = above 15
- Condition set: 100 nM; 48 h
Structures can show the parent of a compound that is named as a salt.
Measured inhibition of SARS-CoV-2 cytopathic effect by item
Recorded metric: inhibition of SARS-CoV-2 cytopathic effect (%)

INSERT INTO measurements (molecule, value_reported) VALUES
  ('Cc1nc(-c2ccc(OCC(C)C)c(C#N)c2)sc1C(=O)O [febuxostat]', -0.43),
  ('CNC(=O)[C@H](Cc1ccccc1)NC(=O)[C@H](CC(C)C)[C@H](CSc1cccs1)C(=O)NO [batimastat]', -3.51),
  ('CC(C)C(=O)Nc1ncc(-c2cc(C(F)F)nn2-c2c(Cl)cccc2Cl)s1', -0.32),
  ('O[C@H]1[C@H](O)[C@@H](O)[C@H](O)[C@@H](O)[C@H]1O [inositol]', -1.55),
  ('CN[C@@H]1[C@H](O[C@H]2[C@H](O[C@H]3[C@H](O)[C@@H](O)[C@H](N=C(N)N)[C@@H](O)[C@@H]3N=C(N)N)O[C@@H](C)[C@]2(O)C=O)O[C@@H](CO)[C@H](O)[C@H]1O [STREPTOMYCIN SULFATE [5mM; 10% aq DMSO + 5mM ethanolamine]]', -0.12),
  ('Nc1ccn([C@@H]2O[C@H](CO)[C@@H](O)[C@@H]2O)c(=O)n1 [cytarabine]', 2.21),
  ('Cc1c(N(C)CS(=O)(=O)O)c(=O)n(-c2ccccc2)n1C [metamizole]', -1.36),
  ('CN(CC(=O)O)C(=N)N [creatine]', -2.37),
  ('Cc1c(C(=O)NN2CCCCC2)nn(-c2ccc(Cl)cc2Cl)c1-c1ccc(I)cc1', 3.18),
  ('CN1Cc2c(C(=O)OC(C)(C)C)ncn2-c2ccsc2C1=O', 1.79),
  ('CNc1ccc([N+](=O)[O-])cc1-n1cnc(-c2ccc(C(F)(F)F)cc2)c1', 0.62),
  ('COc1cc2ncnc(Nc3ccc(F)c(Cl)c3)c2cc1OCCCN1CCOCC1 [gefitinib]', -4.25),
  ('CNC(=O)c1c(-c2ccc(F)cc2)oc2cc(N(CCO)S(C)(=O)=O)c(C3CC3)cc12 [nesbuvir]', 0.33),
  ('CC(C)N(C[C@H]1O[C@@H](n2cnc3c(N)ncnc32)[C@H](O)[C@@H]1O)[C@H]1C[C@@H](CCc2nc3cc(C(C)(C)C)ccc3[nH]2)C1', 1.55),
  ('COc1ccc(CNC(=O)c2cc(-c3cncc(C)c3)ncc2-c2nccs2)nc1OC', 1.64),
  ('C[C@@H]1CCO[C@H]2Cn3cc(C(=O)NCc4ccc(F)cc4F)c(=O)c(O)c3C(=O)N12 [dolutegravir]', 4),
  ('C[N+]1(C)[C@@H]2CC[C@H]1C[C@@H](OC(=O)C(O)c1ccccc1)C2 (some centres undefined) [homatropine-methylbromide]', 0.14),
  ('CNCc1ccc(-c2[nH]c3cc(F)cc4c3c2CCNC4=O)cc1 [rucaparib]', 7.61),
  ('CCCC[C@@H](C=O)NC(=O)[C@H](CC(C)C)NC(=O)OCc1ccccc1 [calpeptin]', -2.86),
  ('CCCNC(C)C(=O)Nc1c(C)csc1C(=O)OC (centres undefined) [articaine]', 0.42),
  ('CC(C)=CCC/C(C)=C/CC/C(C)=C/CCC(=O)OC/C=C(\C)CCC=C(C)C [geranyl-farnesylacetate]', -2.76),
  ('NCc1c[nH]c(=S)n1[C@H]1CCc2c(F)cc(F)cc2C1 [nepicastat]', 2.16),
  ('CO/N=C(\C(=O)N[C@@H]1C(=O)N2C(C(=O)[O-])=C(C[N+]3(C)CCCC3)CS[C@H]12)c1csc(N)n1 [cefepime]', 2.66),
  ('Cc1ccc(NC(=O)c2cccc(N(C)C)c2)cc1NC(=O)c1ccc(O)cc1', 6.65),
  ('CC(=O)O[C@@H]1CC[C@@]2(C)[C@@H](CC[C@]3(C)[C@@H]2C(=O)C=C2[C@@H]4[C@@H](C)[C@H](C)CC[C@]4(C)CC[C@]23C)[C@@]1(C)C(=O)O [acetyl-11-keto-beta-boswellic-acid]', -1.26),
  ('O=C(O)CNC(=O)C1C(=O)N(C2CCCCC2)C(=O)N(C2CCCCC2)C1=O [daprodustat]', 2.21),
  ('Fc1ccc2nc(CCC#Cc3ccccn3)cn2c1 [dipraglurant]', 0.87),
  ('NC1=NC(=O)N([C@H]2C[C@H](O)[C@@H](CO)O2)CN1', 0.08),
  ('CC(=O)N(OCc1ccccc1)[C@@H]1c2cc(C#N)ccc2OC(C)(C)[C@H]1O', -6.3),
  ('COc1cc(N2CCC(N)CC2)ccc1Nc1ncc(Cl)c(-c2c[nH]c3ccccc23)n1', -1.87),
  ('Oc1c(Cl)cc(Cl)c(Cl)c1Cc1c(O)c(Cl)cc(Cl)c1Cl [hexachlorophene]', 0.2),
  ('COc1ccc(C(=O)NCc2cccnc2)cc1C(=O)NCc1cccnc1 [picotamide]', 0.96),
  ('Cc1n[nH]c2ccc(-c3cncc(OC[C@@H](N)Cc4ccccc4)c3)cc12', 4.58),
  ('CCCC(CCC)C(=O)NCC(N)=O [valrocemide]', 2.6);
